Biological target: hA2AAR (Homo sapiens, UniProt P29274)
Sequence (P29274 whole entry): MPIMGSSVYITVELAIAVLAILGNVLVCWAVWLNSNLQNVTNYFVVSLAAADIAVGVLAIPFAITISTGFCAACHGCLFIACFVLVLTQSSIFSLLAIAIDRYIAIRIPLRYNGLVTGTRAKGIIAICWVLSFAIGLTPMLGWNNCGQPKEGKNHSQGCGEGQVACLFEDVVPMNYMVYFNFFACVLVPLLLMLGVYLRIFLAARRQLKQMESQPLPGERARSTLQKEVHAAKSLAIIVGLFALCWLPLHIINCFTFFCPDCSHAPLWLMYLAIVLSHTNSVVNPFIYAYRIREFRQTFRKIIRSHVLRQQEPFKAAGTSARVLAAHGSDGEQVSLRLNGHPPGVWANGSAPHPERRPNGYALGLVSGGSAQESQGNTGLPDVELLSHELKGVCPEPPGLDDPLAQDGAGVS
pKi: −log10 of the molar value.
parameter: pKi

In: Return reported pKi. Input molecule: CNC(=O)[C@@]12C[C@@H]1[C@@H](n1cnc3c(N)nc(C#Cc4ccccc4)nc31)[C@H](O)[C@@H]2O
Out: ~6.00
